// data source = patent US20200291070A1

# TESTED_TARGET: Recombinant GST-NEMO (from plasmid pGEX4T3-NEMO(1-196)) (UniProt Q9Y6K9)
# Sequence (Q9Y6K9 1-196): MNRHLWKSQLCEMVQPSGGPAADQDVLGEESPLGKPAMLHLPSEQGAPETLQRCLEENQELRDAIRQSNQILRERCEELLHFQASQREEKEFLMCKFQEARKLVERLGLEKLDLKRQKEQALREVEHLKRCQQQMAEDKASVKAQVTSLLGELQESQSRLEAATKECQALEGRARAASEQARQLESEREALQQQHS
# EXPERIMENT_SUMMARY: HTRF competition against biotin-IKKβKK/RR(701-745) on GST-NEMO
Numbered stars: 1 amine (or outer) side, 2 acyl side, 3 side chain; on linkers, the order of the positions; unused ones are H or OH. Bridge positions count the residues as written; N and C are the ends. Square brackets hold non-standard residues; d marks the D form. Ends that are not written are not given here. Tm = trimesic acid, bicyclized on Tm at the N-terminus; Trimesoyl = O=C(c1cc(C(=O)[*:2])cc(C(=O)[*:3])c1)[*:1]; 2Nal = N[C@@H](Cc1ccc2ccccc2c1)C(=O)O; Dap = NC[C@H](N)C(=O)O; βAla = NCCC(=O)O
READOUT_KIND: IC50 (nM)
// return numeric value only (unit: nM, not printed)

Field: example entries. Status: answers known.
Consider Trimesoyl-GWIYA[Dap]F[2Nal]A[dR]R[Dap][βAla][βAla]K (linker N-6-12 via Tm) [peptide 17, Tm(GWIYA)Δ(FΦArRΔ)-BBK] . Its measured IC50 is 1100

Consider Trimesoyl-GAIAA[Dap]F[2Nal]R[dR]R[Dap][βAla][βAla]K (linker N-6-12 via Tm) [peptide 20, Tm(GAIAA)Δ(FΦRrRΔ)-BBK] . Its measured IC50 is 16000

Consider Trimesoyl-GWIYA[Dap]F[2Nal]R[dR]R[Dap][βAla][βAla]K (linker N-6-12 via Tm) [peptide 7, Tm(GWIYA)Δ(FΦRrRΔ)-BBK] . Its measured IC50 is 1000

Consider Trimesoyl-AGWIY[Dap]F[2Nal]R[dR]R[Dap][βAla][βAla]K (linker N-6-12 via Tm) [peptide 9, Tm(AGWIY)Δ(FΦRrRΔ)-BBK] . Its measured IC50 is 2200

Please examine the following record next.
Consider Trimesoyl-GWIY[Dap]F[2Nal]RRRR[Dap][βAla][βAla]K (linker N-5-12 via Tm) [peptide 3, Tm(GWIY)Δ(FΦRRRRΔ)-BBK] . Its measured IC50 is 1500
